Task for the reader: assign each of the following compounds its reported viability, T/C.
System: 883617-216-R-J1-PDC complex spheroid viability;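 note: spheroids exposed to compounds for seven days before readout; 100% = DMSO vehicle control viability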
Assay Overview: Anticancer human tumor 883617-216-R-J1-PDC patient-derived bladder carcinoma cell line growth inhibition [POLQ]
Condition Context: second compound 10 µM; first compound 0.0316 µM; stronger effect = lower value
Provide only the numeric value, understood in %.

In plain terms, CNCc1ccc(-c2[nH]c3cc(F)cc4c3c2CCNC4=O)cc1 + Nc1ccc(C#CCN(C(=O)Cc2ncc(C(F)(F)F)cc2C(F)(F)F)c2ccc(F)cc2)nn1 has a documented viability, T/C of 116

In plain terms, Cn1ncnc1[C@H]1c2n[nH]c(=O)c3cc(F)cc(c23)N[C@@H]1c1ccc(F)cc1 + COC1C(OC(N)=O)C(O)C(Oc2ccc3c(O)c(NC(=O)c4ccc(O)c(CC=C(C)C)c4)c(=O)oc3c2C)OC1(C)C has a documented viability, T/C of 79.5

In plain terms, CC(C)n1c(=O)n(C)c2cnc3cc(F)c(-c4ccc(OCCCN5CCCCC5)nc4)cc3c21 + Nc1ccc(C#CCN(C(=O)Cc2ncc(C(F)(F)F)cc2C(F)(F)F)c2ccc(F)cc2)nn1 has a documented viability, T/C of 117

In plain terms, Nc1ccn(C2OC(CO)C(O)C2(F)F)c(=O)n1 (stereo not given) + COC1C(OC(N)=O)C(O)C(Oc2ccc3c(O)c(NC(=O)c4ccc(O)c(CC=C(C)C)c4)c(=O)oc3c2C)OC1(C)C has a documented viability, T/C of 29.3

In plain terms, CC1COCCN1c1cc(-c2ccnn2C)c2ccnc(-c3ccn[nH]3)c2n1 (stereo not given) + Nc1ccc(C#CCN(C(=O)Cc2ncc(C(F)(F)F)cc2C(F)(F)F)c2ccc(F)cc2)nn1 has a documented viability, T/C of 84.5

In plain terms, CC1COCCN1c1cc(C2(O)CC3CCC(C2)O3)c2cnn(-c3ccn[nH]3)c2n1 (stereo not given) + Nc1ccc(C#CCN(C(=O)Cc2ncc(C(F)(F)F)cc2C(F)(F)F)c2ccc(F)cc2)nn1 has a documented viability, T/C of 73.1

In plain terms, COc1cc2cc(C(=O)CCC(=O)O)sc2cc1OC + Nc1ccc(C#CCN(C(=O)Cc2ncc(C(F)(F)F)cc2C(F)(F)F)c2ccc(F)cc2)nn1 has a documented viability, T/C of 122

In plain terms, COc1cc2cc(C(=O)CCC(=O)O)sc2cc1OC + COC1C(OC(N)=O)C(O)C(Oc2ccc3c(O)c(NC(=O)c4ccc(O)c(CC=C(C)C)c4)c(=O)oc3c2C)OC1(C)C has a documented viability, T/C of 101

In plain terms, COc1cc(C2c3cc4c(cc3C(OC3OC5COC(C)OC5C(O)C3O)C3COC(=O)C23)OCO4)cc(OC)c1O (stereo not given) + COC1C(OC(N)=O)C(O)C(Oc2ccc3c(O)c(NC(=O)c4ccc(O)c(CC=C(C)C)c4)c(=O)oc3c2C)OC1(C)C has a documented viability, T/C of 97.2

In plain terms, CCCS(=O)(=O)Nc1ccc(F)c(C(=O)c2c[nH]c3ncc(-c4ccc(Cl)cc4)cc23)c1F + COC1C(OC(N)=O)C(O)C(Oc2ccc3c(O)c(NC(=O)c4ccc(O)c(CC=C(C)C)c4)c(=O)oc3c2C)OC1(C)C has a documented viability, T/C of 106

In plain terms, CCc1c2c(nc3ccc(O)cc13)-c1cc3c(c(=O)n1C2)COC(=O)[C@]3(O)CC + Cc1cccc(N(C)C(=O)C2C(O)CCN2c2nc(C)cc(C(F)(F)F)c2C#N)c1 has a documented viability, T/C of 62.1

In plain terms, COc1ccc([C@@H](O)c2cc(-c3ncnc4cc(N5CCOCC5)ccc34)c(F)cc2Cl)nn1 + Nc1ccc(C#CCN(C(=O)Cc2ncc(C(F)(F)F)cc2C(F)(F)F)c2ccc(F)cc2)nn1 has a documented viability, T/C of 108

In plain terms, O=C(c1cc(Cc2n[nH]c(=O)c3ccccc23)ccc1F)N1CCN(C(=O)C2CC2)CC1 + COC1C(OC(N)=O)C(O)C(Oc2ccc3c(O)c(NC(=O)c4ccc(O)c(CC=C(C)C)c4)c(=O)oc3c2C)OC1(C)C has a documented viability, T/C of 94

In plain terms, O=c1[nH]cc(F)c(=O)[nH]1 + COC1C(OC(N)=O)C(O)C(Oc2ccc3c(O)c(NC(=O)c4ccc(O)c(CC=C(C)C)c4)c(=O)oc3c2C)OC1(C)C has a documented viability, T/C of 95.2

In plain terms, O=C(c1cc(Cc2n[nH]c(=O)c3ccccc23)ccc1F)N1CCN(C(=O)C2CC2)CC1 + Cc1cccc(N(C)C(=O)C2C(O)CCN2c2nc(C)cc(C(F)(F)F)c2C#N)c1 has a documented viability, T/C of 114

In plain terms, COc1cccc2c1C(=O)c1c(O)c3c(c(O)c1C2=O)CC(O)(C(=O)CO)CC3OC1CC(N)C(O)C(C)O1 (stereo not given) + Cc1cccc(N(C)C(=O)C2C(O)CCN2c2nc(C)cc(C(F)(F)F)c2C#N)c1 has a documented viability, T/C of 66

In plain terms, O=C(Nc1ccc(O)c(NS(=O)(=O)c2ccc(F)cc2)c1)c1ccc(-c2ccccc2)cc1 + Cc1cccc(N(C)C(=O)C2C(O)CCN2c2nc(C)cc(C(F)(F)F)c2C#N)c1 has a documented viability, T/C of 105

In plain terms, CCc1cc2c(N3CCc4c(cc(Cn5ccnc5)cc4-c4cn(C)nc4C(F)(F)F)C3=O)ccnc2c(OC)n1 + Nc1ccc(C#CCN(C(=O)Cc2ncc(C(F)(F)F)cc2C(F)(F)F)c2ccc(F)cc2)nn1 has a documented viability, T/C of 105

In plain terms, CCc1cc2c(N3CCc4c(cc(Cn5ccnc5)cc4-c4cn(C)nc4C(F)(F)F)C3=O)cc(C)nc2c(OC)n1 + COC1C(OC(N)=O)C(O)C(Oc2ccc3c(O)c(NC(=O)c4ccc(O)c(CC=C(C)C)c4)c(=O)oc3c2C)OC1(C)C has a documented viability, T/C of 99.8

In plain terms, COc1ccc([C@@H](O)c2cc(-c3ncnc4cc(N5CCOCC5)ccc34)c(F)cc2Cl)nn1 + COC1C(OC(N)=O)C(O)C(Oc2ccc3c(O)c(NC(=O)c4ccc(O)c(CC=C(C)C)c4)c(=O)oc3c2C)OC1(C)C has a documented viability, T/C of 87
